# Run description: Aqueous solubility (turbidity of solution)
# Assay type: physicochemical
Bridge positions count the residues as written; N and C are the ends. Square brackets hold non-standard residues; d marks the D form. Peptide text beside a SMILES is read from it. R8 = C=CCCCCCC[C@@](C)(N)C(=O)O; S5 = C=CCCC[C@](C)(N)C(=O)O
Quantity kind: solubility

Requested field: solubility. Item: CC(=O)N[C@@H](CC(C)C)C(=O)N[C@H](C(=O)N[C@@H](Cc1ccccc1)C(=O)N[C@]1(C)CCCCCCC=CCCC[C@@](C)(C(=O)N[C@@H](C)C(N)=O)NC(=O)[C@H](CC(C)C)NC(=O)[C@H](CCC(N)=O)NC(=O)[C@H](C)NC(=O)[C@H](Cc2c[nH]c3ccccc23)NC(=O)[C@H](Cc2ccc(O)cc2)NC(=O)[C@H](C)NC1=O)[C@@H](C)O [SP590, Ac-LTF$r8AYWAQL$A-NH2] (Ac-LTF[R8]AYWAQL[S5]A-NH2; staple 4-11)
≤ 1000 µg/mL
